Where these numbers come from: ChEMBL document CHEMBL1961873

test target: Testis-specific serine/threonine-protein kinase 2 (Homo sapiens);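 note: values are mean inhibition of TSSK2 activity from the GSK PKIS profiling panel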
Sequence (whole entry): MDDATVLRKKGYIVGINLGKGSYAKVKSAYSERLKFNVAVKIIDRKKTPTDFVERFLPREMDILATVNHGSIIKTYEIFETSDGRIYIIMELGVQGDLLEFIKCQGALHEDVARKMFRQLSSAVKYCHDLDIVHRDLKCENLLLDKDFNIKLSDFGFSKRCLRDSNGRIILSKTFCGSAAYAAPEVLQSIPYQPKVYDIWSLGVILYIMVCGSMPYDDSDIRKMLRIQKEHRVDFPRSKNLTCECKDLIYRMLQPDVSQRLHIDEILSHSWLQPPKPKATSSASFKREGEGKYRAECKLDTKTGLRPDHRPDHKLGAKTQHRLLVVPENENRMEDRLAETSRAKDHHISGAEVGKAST
conditions: at 0.1 µM
Assign inhibition to each entry below.
One number for each entry, in %.

# count of solved cases: 2
smiles representation: Cc1cccc(-c2n[nH]cc2-c2ccc3ncccc3n2)n1
inhibition [%]: -0.09

smiles representation: COc1cc(C)c(NC(=O)CN(C)C)cc1Nc1nc(Nc2cccc(F)c2C(N)=O)c2cc[nH]c2n1
inhibition [%]: 31.8

Identify measured inhibition corresponding to COc1cc2ncn(-c3cc(O[C@@H](C)c4ccccc4Cl)c(C(N)=O)s3)c2cc1OC
1.37

###

test target: Tyrosine-protein kinase TXK (Homo sapiens) (UniProt P42681);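 note: each listed value is a mean percent inhibition of TXK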
Sequence (P42681 whole entry): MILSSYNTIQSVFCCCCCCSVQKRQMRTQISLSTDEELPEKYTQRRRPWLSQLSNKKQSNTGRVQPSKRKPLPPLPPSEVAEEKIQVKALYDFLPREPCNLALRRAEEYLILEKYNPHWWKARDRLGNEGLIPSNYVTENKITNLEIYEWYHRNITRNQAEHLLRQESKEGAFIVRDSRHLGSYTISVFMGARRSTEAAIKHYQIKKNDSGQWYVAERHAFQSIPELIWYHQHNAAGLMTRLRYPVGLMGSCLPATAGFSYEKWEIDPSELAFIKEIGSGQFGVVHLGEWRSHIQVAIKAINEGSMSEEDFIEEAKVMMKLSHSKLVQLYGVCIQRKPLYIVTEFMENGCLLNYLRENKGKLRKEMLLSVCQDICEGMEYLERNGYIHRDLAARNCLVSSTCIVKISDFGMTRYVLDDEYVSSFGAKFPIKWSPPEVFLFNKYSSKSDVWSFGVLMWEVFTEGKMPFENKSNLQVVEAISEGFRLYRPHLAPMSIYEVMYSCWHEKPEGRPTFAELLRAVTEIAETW
conditions: at 0.1 µM
measure: inhibition (%)
Numbers only, in %.

# count of solved cases: 2
compound: CCCN1CCC=C(c2ccc(Nc3nc(Nc4ccccc4C(N)=O)c4cc[nH]c4n3)c(C)c2)C1
numeric value: 6.59

compound: O=C1NC(=O)C(c2ccc(Cl)cc2)=C1Nc1ccc(Cl)c(C(=O)O)c1
numeric value: -0.87

Please state, for each entry, its recorded inhibition.
1. Nc1nc(-c2ccccn2)c(-c2ccc3ncccc3n2)s1
2. CN(C)c1cc2c(Nc3ccc4nc(Cc5ccccc5)[nH]c4c3)ncnc2cn1
3. CN1CCC(C(=O)Nc2n[nH]c3nnc(-c4ccccc4)cc23)CC1
4. Cc1cc(O)cc(C)c1/C=C/c1cncc(-c2nn[nH]n2)c1
5. Cc1cccc(-c2n[nH]cc2-c2ccc3ncccc3n2)n1
6. COc1cc2c(cc1Nc1nc(N3CCc4ccccc43)c3cc[nH]c3n1)N(C(=O)CN(C)C)CC2
7. NS(=O)(=O)c1cccc(-c2ccc3c(NC(=O)C4CC4)n[nH]c3c2)c1
8. COc1cc(C)c(NC(=O)CN(C)C)cc1Nc1nc(Nc2cccc(F)c2C(N)=O)c2cc[nH]c2n1

2.05
8.4
2.62
5.73
1.27
4.42
-2.48
0.4

Please state, for each entry, its recorded inhibition.
1. COc1ccc(-c2ccncc2)cc1C(N)=O
2. CC1=C(C(=O)Nc2ccc3[nH]ncc3c2)C(c2ccc3ccccc3c2)CC(=O)N1 (configuration not stated)
3. COc1ccc(-c2nn3ncccc3c2-c2ccnc(Nc3ccc(Cl)c(C(F)(F)F)c3)n2)cc1
4. NC(=O)c1cccc(Nc2nccc(Nc3cccc4[nH]ncc34)n2)c1
5. N#Cc1c(NC(=O)c2cccc3ccccc23)sc2c1CCCC2
6. CNC(=O)c1cncc(/C=C/c2c(Cl)cccc2Cl)c1
7. Cc1nnc(-c2ccc(C)c(-c3ccc(C(=O)Nc4cccc(C#N)c4)cc3)c2)o1

1: 4.98; 2: 2.76; 3: 3.13; 4: 15.8; 5: 2.34; 6: 5.28; 7: 3.37

Please state, for each entry, its recorded inhibition.
1. COc1ccc(-c2coc3ncnc(N)c23)cc1
2. CC1=C(C(=O)Nc2ccc3[nH]ncc3c2)C(c2ccc(F)cc2)NC(=O)N1 (configuration not stated)
3. CS(=O)(=O)CCN(CC#N)Cc1ccc(-c2ccc3ncnc(Nc4ccc(OCc5cccc(F)c5)c(Cl)c4)c3c2)o1
4. NCc1ccc(-c2nc(-c3ccc(Cl)c(O)c3)c(-c3ccncc3)[nH]2)cc1

[2.99, 1.25, -2.35, 18.9]

Please state, for each entry, its recorded inhibition.
1. CCn1c(-c2nonc2N)nc2ccncc21
2. [O-][S+]1CCN(Cc2ccc(-c3ccc4ncnc(Nc5ccc(OCc6ccccc6)c(F)c5)c4c3)o2)CC1
3. CC(=O)Nc1cccc(C#Cc2cncnc2Nc2ccc(OCc3cccc(F)c3)c(Cl)c2)n1
4. COc1cc2ncn(-c3cc(O[C@@H](C)c4ccccc4Cl)c(C(N)=O)s3)c2cc1OC
5. NC(=O)c1ccc(-c2nc(-c3ccccn3)c(-c3ccc4c(c3)OCO4)[nH]2)cc1

0.17
2.49
0.96
-1.39
2.18
